System: EKVX NSCLC
protocol: NCI tumour cell line growth inhibition, 48 h
This section presents compounds with their documented GI50 values.

Some solved cases for reference:
[
  {
    "compound": "CC(C)(C)c1ccc([I+]c2ccc(C(C)(C)C)cc2)cc1",
    "GI50": "1.42 µM"
  },
  {
    "compound": "O=C1c2ccccc2C(=O)N1c1ccc(S(=O)(=O)Nc2ncccn2)cc1",
    "GI50": "> 100 µM"
  }
]

We now examine a further compound.
Form field GI50, entry CCN(CC)CCOc1ccc(/C=C2\CC3C4CCC5=CC(=O)CC[C@]5(C)C4CC[C@]3(C)C2=O)cc1OC (stereo partly drawn) : 4.88 µM

* * *

This section presents molecules with their documented TGI values.
System: UACC-257 melanoma
protocol: NCI tumour cell line growth inhibition, 48 h

Some solved cases for reference:
[
  {
    "molecule": "O=C(Nc1ccc(Br)cc1)Nc1n[nH]c2ccccc12",
    "result": "> 100 µM"
  },
  {
    "molecule": "Cc1nn(C(=O)c2ccc(Cl)cc2)c2c1C(c1ccc([N+](=O)[O-])cc1)SC(N)=N2 (stereo unspecified)",
    "result": "> 10 µM"
  },
  {
    "molecule": "COc1cc2c(c(OC)c1OC)-c1[nH]ncc1CC2",
    "result": "> 100 µM"
  },
  {
    "molecule": "CCOP(=O)(Nc1ccc(-c2ccccc2)cc1)OCC",
    "result": "> 100 µM"
  },
  {
    "molecule": "CCOc1ccc2c(c1)/C(=C(\\C(Cl)=C(Cl)Cl)[N+](=O)[O-])N2",
    "result": "> 100 µM"
  }
]

We now examine a further molecule.
Form field TGI, entry C=C1CC(CCCl)(c2ccccc2)OC1=O (stereo unspecified) : > 75.1 µM

* * *

System: OVCAR-3 ovarian
protocol: NCI tumour cell line growth inhibition, 48 h
result_type: TGI

Some solved cases for reference:
[
  {
    "molecule": "COC(=O)CC1(CNC(=O)OCc2ccccc2)OCCO1",
    "result_type": "TGI",
    "result": "> 100 µM"
  },
  {
    "molecule": "O=C(Nc1c(-c2nc3ccccc3[nH]2)sc(=S)n1-c1ccccc1)c1ccccc1",
    "result_type": "TGI",
    "result": "> 100 µM"
  }
]

Form field TGI, entry CC(=O)OC1CC2CCC1(C)C2(C)C (stereo unspecified) : > 100 µM

Form field TGI, entry O=P(O)(O)C(O)/C=C/c1ccccc1 (stereo unspecified) : > 100 µM

Form field TGI, entry `CCCCCCCCCCCCCCCc1cc(O)ccc1N` : > 27.9 µM

Form field TGI, entry O=C(O)C1C2CC3C(OC(=O)C31)C2Br (stereo unspecified) : > 100 µM

* * *

Tested on: SW-620 colon
protocol: NCI tumour cell line growth inhibition, 48 h
This section presents compounds with their documented TGI values.

Some solved cases for reference:
[
  {
    "item_smiles": "Cc1ccc2c(c1)NC(=O)CCSSCCC(=O)N2",
    "result": "> 100 µM"
  },
  {
    "item_smiles": "O=C(N/N=C1\\CCc2ccccc2C1)N/N=C1\\CCc2ccccc2C1",
    "result": "> 10 µM"
  },
  {
    "item_smiles": "O=S1(=O)CCN(Cc2ccccn2)CC1",
    "result": "> 100 µM"
  },
  {
    "item_smiles": "Cc1cc2[nH]c3c(C#N)c(-c4ccccc4)c(N=Nc4cccc(C(F)(F)F)c4)c(=O)n3c2cc1C",
    "result": "> 100 µM"
  }
]

Form field TGI, entry `O=C(Nc1c(-c2nc3ccccc3[nH]2)sc(=S)n1-c1ccccc1)c1ccccc1` : > 100 µM

Values from PubChem BioAssay (NCI)
